Values were extracted from paper PMC5540273.

System: TESK1
Details: concentration: 1 μM,replicates: in singlicate; n = 1;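 further: KINOMEscan kinase panel screen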
metric name: %Inh (%)
Numeric answer only, unit % assumed.

Task: // %Inh lookup, key: `C[C@H]1Oc2cc(cnc2N)-c2c(nn(C)c2C#N)CN(C)C(=O)c2ccc(F)cc21`
Output: 77

Task: // %Inh lookup, key: `Cl.Cl.NC[C@H](Cc1ccc(C(F)(F)F)cc1)NC(=O)c1cc(Br)c(-c2ccnc3[nH]ccc23)s1`
Output: 24

Task: // %Inh lookup, key: `CC(C)N1C(=O)Cc2cc(Nc3ncc(C(F)(F)F)c(NCc4cccc(S(C)(=O)=O)c4)n3)ccc21`
Output: 0

Task: // %Inh lookup, key: `Cl.Oc1cc(-c2nc(-c3ccccc3)[nH]c2-c2ccncc2)ccc1Cl`
Output: 31

* * *

Please go through the items and note down their %Inh.
System: LIMK2
Settings: concentration: 1 μM,replicates: in singlicate; n = 1
Numeric answer only, unit % assumed.

Task: // %Inh lookup, key: `CCN(CC)CCCCNc1ncc2cc(-c3c(Cl)cccc3Cl)c(NC(=O)NC(C)(C)C)nc2n1`
Output: 1

Task: // %Inh lookup, key: C=CC(=O)Nc1cc2c(Nc3ccc(F)c(Cl)c3)ncnc2cc1OCCCN1CCOCC1 [GW781483]
Output: 0

Task: // %Inh lookup, key: Cc1occc1-c1nc(N)c(OC[C@@H](N)Cc2c[nH]c3ccccc23)cc1-c1cc2c(C)n[nH]c2cn1 [GSK1660450]
Output: 0

Task: // %Inh lookup, key: `Cc1cc(C(=O)Nc2ccc(Oc3ccc4nc(NC(=O)C5CC5)cn4n3)cc2)nn1-c1ccccc1`
Output: 9

Task: // %Inh lookup, key: CC(C)Nc1cc(-c2ccc3c(N)n[nH]c3c2)nc(N)n1 [GSK2221681]
Output: 0

Task: // %Inh lookup, key: CCN(CC)CCOc1ccc(Nc2ncc3cc(-c4c(Cl)cccc4Cl)c(=O)n(C)c3n2)cc1 [SB-601273]
Output: 95.4

* * *

Test system: MAP4K3
Conditions: concentration: 1 μM,replicates: in singlicate; n = 1
metric name: %Inh (%)
Numeric answer only, unit % assumed.

Task: // %Inh lookup, key: `CC(C)N1C(=O)Cc2cc(Nc3ncc(C(F)(F)F)c(NCc4cccc(S(C)(=O)=O)c4)n3)ccc21`
Output: 0

Task: // %Inh lookup, key: `CCn1c(-c2nonc2N)nc2c(C#CC(C)(C)O)nc(OCCN)cc21.Cl.Cl`
Output: 0

Task: // %Inh lookup, key: `O=C(NCCNc1ccnc(NCc2ccc(F)cc2)n1)c1cc2ccccc2s1`
Output: 0

Task: // %Inh lookup, key: `Cc1n[nH]c2ccc(-c3cc(OC[C@@H](N)Cc4ccccc4)cnc3-c3ccoc3)cc12.O=C(O)C(F)(F)F.O=C(O)C(F)(F)F`
Output: 77

Task: // %Inh lookup, key: `C[C@@H]1CCN(C(=O)CC#N)C[C@@H]1N(C)c1ncnc2[nH]ccc12`
Output: 4

Task: // %Inh lookup, key: `CC(C)Nc1cc(-c2ccc3c(N)n[nH]c3c2)nc(N)n1`
Output: 0

Task: // %Inh lookup, key: `COc1ccc(C[C@@H](CN)NC(=O)c2cc(Br)c(-c3ccnc4[nH]ccc34)s2)cc1.Cl.Cl`
Output: 39

Task: // %Inh lookup, key: `Cc1occc1-c1nc(N)c(OC[C@@H](N)Cc2c[nH]c3ccccc23)cc1-c1cc2c(C)n[nH]c2cn1`
Output: 99.4

* * *

System: MAP4K4
Conditions: concentration: 1 μM,replicates: in singlicate; n = 1
metric name: %Inh

Task: // %Inh lookup, key: Cl.Cl.Nc1nc(-c2ccc3c(N)n[nH]c3c2)cc(N2CCCC(NC(=O)c3ccccc3)C2)n1 (centres unmarked) [GSK2286775]
Output: 0%

Task: // %Inh lookup, key: `C[C@@H](Oc1cc(-c2cnn(C3CCNCC3)c2)cnc1N)c1c(Cl)ccc(F)c1Cl`
Output: 0%

Task: // %Inh lookup, key: CN(C)CC(O)COc1ccc(Nc2nccc(-c3cnn4nc(N5CCOCC5)ccc34)n2)cc1 (centres unmarked) [GW767488]
Output: 14%

Task: // %Inh lookup, key: Cl.Cl.NC[C@H](CC1CCCCC1)NC(=O)c1cc(Br)c(-c2ccnc3[nH]ccc23)s1 [GSK1581427]
Output: 18%

Task: // %Inh lookup, key: `CC(C)N1C(=O)Cc2cc(Nc3ncc(C(F)(F)F)c(NCc4cccc(S(C)(=O)=O)c4)n3)ccc21`
Output: 24%

Task: // %Inh lookup, key: `C[C@@H]1CCN(C(=O)CC#N)C[C@@H]1N(C)c1ncnc2[nH]ccc12`
Output: 0%

Task: // %Inh lookup, key: CCn1c(-c2nonc2N)nc2c(C#CC(C)(C)O)nc(OCCN)cc21.Cl.Cl [GSK902056]
Output: 0%

Task: // %Inh lookup, key: NC(=O)c1cc(-c2ccccc2)cc2c(C3CCNCC3)c[nH]c12 [GSK301362]
Output: 22%

* * *

Test system: NIK
Construct: gene MAP3K14
Conditions: concentration: 1 μM,replicates: in singlicate; n = 1
Please go through the items and note down their %Inh.
Numeric answer only, unit % assumed.

Task: Param readout= %Inh; system= NIK; entry= Cc1occc1-c1nc(N)c(OC[C@@H](N)Cc2c[nH]c3ccccc23)cc1-c1cc2c(C)n[nH]c2cn1 [GSK1660450] ; returns value.
Output: 78

Task: Param readout= %Inh; system= NIK; entry= `C[C@@H](Oc1cc(-c2cnn(C3CCNCC3)c2)cnc1N)c1c(Cl)ccc(F)c1Cl` ; returns value.
Output: 0

Task: Param readout= %Inh; system= NIK; entry= `Cc1cc(C(=O)Nc2ccc(Oc3ccc4nc(NC(=O)C5CC5)cn4n3)cc2)nn1-c1ccccc1` ; returns value.
Output: 0

Task: Param readout= %Inh; system= NIK; entry= CCn1c(-c2nonc2N)nc2c(C#CC(C)(C)O)nc(OCCN)cc21.Cl.Cl [GSK902056] ; returns value.
Output: 63

Task: Param readout= %Inh; system= NIK; entry= Cc1n[nH]c2ccc(-c3cc(OC[C@@H](N)Cc4ccccc4)cnc3-c3ccoc3)cc12.O=C(O)C(F)(F)F.O=C(O)C(F)(F)F [GSK507358] ; returns value.
Output: 87

Task: Param readout= %Inh; system= NIK; entry= NC(=O)c1cc(-c2ccccc2)cc2c(C3CCNCC3)c[nH]c12 [GSK301362] ; returns value.
Output: 0

Task: Param readout= %Inh; system= NIK; entry= Cc1ccc(-n2nc(C(C)(C)C)cc2NC(=O)Nc2ccc(OCCN3CCOCC3)c3ccccc23)cc1 [GW839464] ; returns value.
Output: 0

Task: Param readout= %Inh; system= NIK; entry= `O=C(NCCCN1CCOC1=O)c1cnc(NCc2cc(Cl)ccc2Cl)nc1NC1CCCC1` ; returns value.
Output: 16

Task: Param readout= %Inh; system= NIK; entry= CN(C)CC(O)COc1ccc(Nc2nccc(-c3cnn4nc(N5CCOCC5)ccc34)n2)cc1 (stereo not shown) [GW767488] ; returns value.
Output: 0

Task: Param readout= %Inh; system= NIK; entry= Cl.Cl.NC[C@H](Cc1ccc(C(F)(F)F)cc1)NC(=O)c1cc(Br)c(-c2ccnc3[nH]ccc23)s1 [GSK1487252] ; returns value.
Output: 0

Task: Param readout= %Inh; system= NIK; entry= Cc1ccc2c(-c3ccncc3)c(-c3ccc(F)cc3)nn2c1.Cl [GW461484] ; returns value.
Output: 4

Task: Param readout= %Inh; system= NIK; entry= O=C(NCCNc1ccnc(NCc2ccc(F)cc2)n1)c1cc2ccccc2s1 [GSK1379944] ; returns value.
Output: 0

Task: Param readout= %Inh; system= NIK; entry= Nc1nc(Nc2ccccc2)cc(-c2ccc3c(N)n[nH]c3c2)n1 [GSK2225749] ; returns value.
Output: 20

* * *

System: TRPM6
Settings: concentration: 1 μM,replicates: in singlicate; n = 1
Please go through the items and note down their %Inh.
Numeric answer only, unit % assumed.

Task: // %Inh lookup, key: `Cl.Oc1cc(-c2nc(-c3ccccc3)[nH]c2-c2ccncc2)ccc1Cl`
Output: 23

Task: // %Inh lookup, key: `COc1ccc(C[C@@H](CN)NC(=O)c2cc(Br)c(-c3ccnc4[nH]ccc34)s2)cc1.Cl.Cl`
Output: 0

Task: // %Inh lookup, key: `Cl.Cl.NC[C@H](Cc1ccc(C(F)(F)F)cc1)NC(=O)c1cc(Br)c(-c2ccnc3[nH]ccc23)s1`
Output: 0

Task: // %Inh lookup, key: `C[C@@H](Oc1cc(-c2cnn(C3CCNCC3)c2)cnc1N)c1c(Cl)ccc(F)c1Cl`
Output: 21

Task: // %Inh lookup, key: `CCN(CC)CCOc1ccc(Nc2ncc3cc(-c4c(Cl)cccc4Cl)c(=O)n(C)c3n2)cc1`
Output: 48

Task: // %Inh lookup, key: `Cc1n[nH]c2ccc(-c3cc(OC[C@@H](N)Cc4ccccc4)cnc3-c3ccoc3)cc12.O=C(O)C(F)(F)F.O=C(O)C(F)(F)F`
Output: 0

Task: // %Inh lookup, key: `Cc1occc1-c1nc(N)c(OC[C@@H](N)Cc2c[nH]c3ccccc23)cc1-c1cc2c(C)n[nH]c2cn1`
Output: 22

Task: // %Inh lookup, key: `Nc1nc(Nc2ccccc2)cc(-c2ccc3c(N)n[nH]c3c2)n1`
Output: 0

Task: // %Inh lookup, key: `CCn1c(-c2nonc2N)nc2c(C#CC(C)(C)O)nc(OCCN)cc21.Cl.Cl`
Output: 0

Task: // %Inh lookup, key: `CN(C)CCOc1ccc(-c2cc(-c3c[nH]nc3-c3ccccn3)ccn2)cc1`
Output: 2

Task: // %Inh lookup, key: `CCN(CC)CCCCNc1ncc2cc(-c3c(Cl)cccc3Cl)c(NC(=O)NC(C)(C)C)nc2n1`
Output: 0

Task: // %Inh lookup, key: `Cc1ccc2c(-c3ccncc3)c(-c3ccc(F)cc3)nn2c1.Cl`
Output: 8

Task: // %Inh lookup, key: `CC(C)Nc1cc(-c2ccc3c(N)n[nH]c3c2)nc(N)n1`
Output: 13

Task: // %Inh lookup, key: `Cc1ccc(-n2nc(C(C)(C)C)cc2NC(=O)Nc2ccc(OCCN3CCOCC3)c3ccccc23)cc1`
Output: 0

Task: // %Inh lookup, key: `Cc1cc(C(=O)Nc2ccc(Oc3ccc4nc(NC(=O)C5CC5)cn4n3)cc2)nn1-c1ccccc1`
Output: 0

Task: // %Inh lookup, key: `CC(C)N1C(=O)Cc2cc(Nc3ncc(C(F)(F)F)c(NCc4cccc(S(C)(=O)=O)c4)n3)ccc21`
Output: 4

Task: // %Inh lookup, key: `Cl.Cl.NC[C@H](CC1CCCCC1)NC(=O)c1cc(Br)c(-c2ccnc3[nH]ccc23)s1`
Output: 8

Task: // %Inh lookup, key: `O=C(NCCNc1ccnc(NCc2ccc(F)cc2)n1)c1cc2ccccc2s1`
Output: 1
